Assay target: UniProt P53355
Sequence (P53355 whole entry, looked up): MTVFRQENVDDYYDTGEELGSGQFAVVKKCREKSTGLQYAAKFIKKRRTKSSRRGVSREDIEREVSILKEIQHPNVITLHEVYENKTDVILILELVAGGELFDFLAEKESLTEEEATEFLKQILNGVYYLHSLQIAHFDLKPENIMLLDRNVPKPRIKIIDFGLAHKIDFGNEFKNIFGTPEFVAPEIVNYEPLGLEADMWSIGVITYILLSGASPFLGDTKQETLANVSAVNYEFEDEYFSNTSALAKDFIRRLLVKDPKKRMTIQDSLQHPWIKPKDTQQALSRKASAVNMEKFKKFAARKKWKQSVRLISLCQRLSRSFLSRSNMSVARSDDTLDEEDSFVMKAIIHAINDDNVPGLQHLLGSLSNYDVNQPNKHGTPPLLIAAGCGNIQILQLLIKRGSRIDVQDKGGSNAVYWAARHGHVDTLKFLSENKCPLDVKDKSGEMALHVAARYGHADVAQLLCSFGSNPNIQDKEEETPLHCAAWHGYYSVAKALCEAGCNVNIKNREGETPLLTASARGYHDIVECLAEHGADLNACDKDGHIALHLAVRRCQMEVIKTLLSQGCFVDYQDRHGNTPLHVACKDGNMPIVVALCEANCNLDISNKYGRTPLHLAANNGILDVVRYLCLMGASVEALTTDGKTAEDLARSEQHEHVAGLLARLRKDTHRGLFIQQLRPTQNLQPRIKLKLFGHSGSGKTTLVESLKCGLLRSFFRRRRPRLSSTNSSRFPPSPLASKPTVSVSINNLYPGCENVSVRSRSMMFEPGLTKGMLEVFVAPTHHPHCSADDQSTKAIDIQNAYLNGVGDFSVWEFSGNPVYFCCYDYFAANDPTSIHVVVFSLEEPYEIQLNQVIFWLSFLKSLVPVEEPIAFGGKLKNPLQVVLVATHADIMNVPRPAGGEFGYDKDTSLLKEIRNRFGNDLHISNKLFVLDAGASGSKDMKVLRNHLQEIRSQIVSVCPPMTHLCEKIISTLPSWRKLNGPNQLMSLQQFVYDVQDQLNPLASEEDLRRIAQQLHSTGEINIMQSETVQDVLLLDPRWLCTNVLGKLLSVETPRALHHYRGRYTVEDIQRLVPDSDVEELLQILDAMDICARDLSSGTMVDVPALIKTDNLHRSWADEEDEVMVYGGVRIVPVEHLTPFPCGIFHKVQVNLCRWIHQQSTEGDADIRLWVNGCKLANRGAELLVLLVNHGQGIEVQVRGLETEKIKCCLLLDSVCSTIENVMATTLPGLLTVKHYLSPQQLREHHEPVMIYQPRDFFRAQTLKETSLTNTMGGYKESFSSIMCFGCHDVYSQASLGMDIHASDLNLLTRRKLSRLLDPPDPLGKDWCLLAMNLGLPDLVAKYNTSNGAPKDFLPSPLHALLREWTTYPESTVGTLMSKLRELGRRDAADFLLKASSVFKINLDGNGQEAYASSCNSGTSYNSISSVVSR
Assay protocol: Caliper, Mobility shift assay off-chip
Experimental conditions: compound 0.02 µM
Measurement name: inhibition

{"Molecular string": "CNC(=O)c1ccccc1Sc1ccc2c(/C=C/c3ccccn3)n[nH]c2c1", "inhibition": "4.8%"}
{"Molecular string": "COc1cc2c(Oc3ccc4[nH]c(C)cc4c3F)ncnc2cc1OCCCN1CCCC1", "inhibition": "-5.9%"}
{"Molecular string": "CNC(=O)c1cc(Oc2ccc(NC(=O)Nc3ccc(Cl)c(C(F)(F)F)c3)cc2)ccn1", "inhibition": "0.7%"}

For this compound ( Cc1ccc(Nc2nccc(N(C)c3ccc4c(C)n(C)nc4c3)n2)cc1S(N)(=O)=O ), measured inhibition is 6.5%

###

Assay target: CSNK1G3 (human)
Assay protocol: Caliper, Mobility shift assay off-chip
Experimental conditions: compound 0.02 µM
Item-by-item account of inhibition
Please reply with the bare figure in % and do not write the unit itself.

Solved cases (3 shown):
{"Molecular string": "CNC(=O)c1ccccc1Sc1ccc2c(/C=C/c3ccccn3)n[nH]c2c1", "Assay target": "CSNK1G3 (human)", "Units text": "%", "Reported result": -2.5}
{"Molecular string": "Cc1ccc(Nc2nccc(N(C)c3ccc4c(C)n(C)nc4c3)n2)cc1S(N)(=O)=O", "Assay target": "CSNK1G3 (human)", "Units text": "%", "Reported result": 0.7}
{"Molecular string": "COc1cc2c(Oc3ccc4[nH]c(C)cc4c3F)ncnc2cc1OCCCN1CCCC1", "Assay target": "CSNK1G3 (human)", "Units text": "%", "Reported result": 2.8}

--- query ---
For this molecule ( CNC(=O)c1cc(Oc2ccc(NC(=O)Nc3ccc(Cl)c(C(F)(F)F)c3)cc2)ccn1 ), measured inhibition is -1.4

###

Assay target: MAP2K7 (human) (UniProt O14733)
Sequence (O14733 whole entry, looked up): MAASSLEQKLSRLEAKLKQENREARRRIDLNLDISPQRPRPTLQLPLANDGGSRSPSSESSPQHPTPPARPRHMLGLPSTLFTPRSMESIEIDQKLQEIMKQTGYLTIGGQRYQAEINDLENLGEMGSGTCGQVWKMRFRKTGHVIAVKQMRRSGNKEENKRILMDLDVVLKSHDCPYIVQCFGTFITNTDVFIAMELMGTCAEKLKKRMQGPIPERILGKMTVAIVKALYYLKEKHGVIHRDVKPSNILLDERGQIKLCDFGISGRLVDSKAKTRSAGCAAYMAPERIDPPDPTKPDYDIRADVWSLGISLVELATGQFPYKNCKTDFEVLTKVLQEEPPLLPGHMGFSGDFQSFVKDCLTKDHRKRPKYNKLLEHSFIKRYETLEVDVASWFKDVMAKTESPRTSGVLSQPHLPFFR
Assay protocol: ELISA
Experimental conditions: compound 0.2 µM
Measurement name: inhibition

Solved cases (3 shown):
{"Molecular string": "Cc1ccc(Nc2nccc(N(C)c3ccc4c(C)n(C)nc4c3)n2)cc1S(N)(=O)=O", "inhibition": "0.2%"}
{"Molecular string": "CNC(=O)c1cc(Oc2ccc(NC(=O)Nc3ccc(Cl)c(C(F)(F)F)c3)cc2)ccn1", "inhibition": "1.1%"}
{"Molecular string": "COc1cc2c(Oc3ccc4[nH]c(C)cc4c3F)ncnc2cc1OCCCN1CCCC1", "inhibition": "-3.5%"}

--- query ---
For this molecule ( CCN(CC)CCNC(=O)c1c(C)[nH]c(/C=C2\C(=O)Nc3ccc(F)cc32)c1C ), measured inhibition is 2.2%

###

Assay target: SGK2 (human)
Assay protocol: Caliper, Mobility shift assay off-chip
Experimental conditions: compound 0.02 µM
Item-by-item account of inhibition
Please reply with the bare figure in % and do not write the unit itself.

Solved cases (3 shown):
{"Molecular string": "COc1cc2c(Oc3ccc4[nH]c(C)cc4c3F)ncnc2cc1OCCCN1CCCC1", "inhibition / %": 4.4}
{"Molecular string": "Cc1ccc(Nc2nccc(N(C)c3ccc4c(C)n(C)nc4c3)n2)cc1S(N)(=O)=O", "inhibition / %": 5.5}
{"Molecular string": "CNC(=O)c1cc(Oc2ccc(NC(=O)Nc3ccc(Cl)c(C(F)(F)F)c3)cc2)ccn1", "inhibition / %": -0.9}

For this molecule ( CNC(=O)c1ccccc1Sc1ccc2c(/C=C/c3ccccn3)n[nH]c2c1 ), measured inhibition is 4.4

###

Assay target: SRPK3 (human) (UniProt Q9UPE1)
Sequence (Q9UPE1 whole entry, looked up): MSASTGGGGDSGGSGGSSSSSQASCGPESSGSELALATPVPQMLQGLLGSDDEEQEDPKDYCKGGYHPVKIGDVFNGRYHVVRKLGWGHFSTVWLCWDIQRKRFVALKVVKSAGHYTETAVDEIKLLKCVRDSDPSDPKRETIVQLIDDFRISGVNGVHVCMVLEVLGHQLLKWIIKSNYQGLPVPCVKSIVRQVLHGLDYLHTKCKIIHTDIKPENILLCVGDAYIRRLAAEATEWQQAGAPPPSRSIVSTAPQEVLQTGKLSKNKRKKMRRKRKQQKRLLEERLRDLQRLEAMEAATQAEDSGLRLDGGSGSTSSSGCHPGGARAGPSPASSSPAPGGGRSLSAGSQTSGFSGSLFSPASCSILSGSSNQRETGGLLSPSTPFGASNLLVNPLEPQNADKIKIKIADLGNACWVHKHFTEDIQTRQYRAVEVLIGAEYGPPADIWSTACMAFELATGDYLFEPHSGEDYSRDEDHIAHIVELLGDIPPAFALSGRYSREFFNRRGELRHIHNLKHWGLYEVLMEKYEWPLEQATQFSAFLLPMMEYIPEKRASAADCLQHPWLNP
Assay protocol: Caliper, Mobility shift assay off-chip
Experimental conditions: compound 0.2 µM
Measurement name: inhibition (%)
Please reply with the bare figure in % and do not write the unit itself.

{"Molecular string": "CNC(=O)c1cc(Oc2ccc(NC(=O)Nc3ccc(Cl)c(C(F)(F)F)c3)cc2)ccn1", "inhibition, %": 7.9}
{"Molecular string": "Cc1ccc(Nc2nccc(N(C)c3ccc4c(C)n(C)nc4c3)n2)cc1S(N)(=O)=O", "inhibition, %": 2.1}
{"Molecular string": "CCN(CC)CCNC(=O)c1c(C)[nH]c(/C=C2\\C(=O)Nc3ccc(F)cc32)c1C", "inhibition, %": 1.1}

For this compound ( COc1cc2c(Oc3ccc4[nH]c(C)cc4c3F)ncnc2cc1OCCCN1CCCC1 ), measured inhibition is 0.3

###

Assay target: PRKACA (human)
Assay protocol: Caliper, Mobility shift assay off-chip
Experimental conditions: compound 0.02 µM
Measurement name: inhibition (%)
Please reply with the bare figure in % and do not write the unit itself.

{"Molecular string": "Cc1ccc(Nc2nccc(N(C)c3ccc4c(C)n(C)nc4c3)n2)cc1S(N)(=O)=O", "inhibition / %": -6.3}

inhibition on PRKACA (human) for CNC(=O)c1ccccc1Sc1ccc2c(/C=C/c3ccccn3)n[nH]c2c1 is -10.1

inhibition on PRKACA (human) for CNC(=O)c1cc(Oc2ccc(NC(=O)Nc3ccc(Cl)c(C(F)(F)F)c3)cc2)ccn1 is -4.7

inhibition on PRKACA (human) for COc1cc2c(Oc3ccc4[nH]c(C)cc4c3F)ncnc2cc1OCCCN1CCCC1 is -2.9

###

Assay target: BMX (human)
Assay protocol: Caliper, Mobility shift assay off-chip
Experimental conditions: compound 0.2 µM
Item-by-item account of inhibition
Please reply with the bare figure in % and do not write the unit itself.

Solved cases (3 shown):
{"Molecular string": "CCN(CC)CCNC(=O)c1c(C)[nH]c(/C=C2\\C(=O)Nc3ccc(F)cc32)c1C", "Measurement name": "inhibition", "Reported result": -0.5}
{"Molecular string": "CNC(=O)c1cc(Oc2ccc(NC(=O)Nc3ccc(Cl)c(C(F)(F)F)c3)cc2)ccn1", "Measurement name": "inhibition", "Reported result": 10.4}
{"Molecular string": "Cc1ccc(Nc2nccc(N(C)c3ccc4c(C)n(C)nc4c3)n2)cc1S(N)(=O)=O", "Measurement name": "inhibition", "Reported result": 0.9}

--- query ---
inhibition on BMX (human) for COc1cc2c(Oc3ccc4[nH]c(C)cc4c3F)ncnc2cc1OCCCN1CCCC1 is 7.1

###

Assay target: TSSK3 (human) (UniProt Q96PN8)
Sequence (Q96PN8 whole entry, looked up): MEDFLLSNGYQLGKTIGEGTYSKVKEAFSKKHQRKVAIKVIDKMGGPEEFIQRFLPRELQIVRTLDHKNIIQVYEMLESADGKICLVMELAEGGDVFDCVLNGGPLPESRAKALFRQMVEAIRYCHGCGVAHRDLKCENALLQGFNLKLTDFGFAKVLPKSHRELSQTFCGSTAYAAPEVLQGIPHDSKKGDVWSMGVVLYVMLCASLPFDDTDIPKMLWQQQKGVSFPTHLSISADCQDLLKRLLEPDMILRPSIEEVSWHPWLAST
Assay protocol: Caliper, Mobility shift assay off-chip
Experimental conditions: compound 0.2 µM
Item-by-item account of inhibition

{"Molecular string": "COc1cc2c(Oc3ccc4[nH]c(C)cc4c3F)ncnc2cc1OCCCN1CCCC1", "Assay target": "TSSK3 (human) (UniProt Q96PN8)", "Reported result": "12.5%"}
{"Molecular string": "CCN(CC)CCNC(=O)c1c(C)[nH]c(/C=C2\\C(=O)Nc3ccc(F)cc32)c1C", "Assay target": "TSSK3 (human) (UniProt Q96PN8)", "Reported result": "2.6%"}

For this compound ( CNC(=O)c1cc(Oc2ccc(NC(=O)Nc3ccc(Cl)c(C(F)(F)F)c3)cc2)ccn1 ), measured inhibition is 8.3%

For this compound ( Cc1ccc(Nc2nccc(N(C)c3ccc4c(C)n(C)nc4c3)n2)cc1S(N)(=O)=O ), measured inhibition is 6.7%

###

Assay target: PDGFRA (human) (UniProt P16234)
Sequence (P16234 whole entry, looked up): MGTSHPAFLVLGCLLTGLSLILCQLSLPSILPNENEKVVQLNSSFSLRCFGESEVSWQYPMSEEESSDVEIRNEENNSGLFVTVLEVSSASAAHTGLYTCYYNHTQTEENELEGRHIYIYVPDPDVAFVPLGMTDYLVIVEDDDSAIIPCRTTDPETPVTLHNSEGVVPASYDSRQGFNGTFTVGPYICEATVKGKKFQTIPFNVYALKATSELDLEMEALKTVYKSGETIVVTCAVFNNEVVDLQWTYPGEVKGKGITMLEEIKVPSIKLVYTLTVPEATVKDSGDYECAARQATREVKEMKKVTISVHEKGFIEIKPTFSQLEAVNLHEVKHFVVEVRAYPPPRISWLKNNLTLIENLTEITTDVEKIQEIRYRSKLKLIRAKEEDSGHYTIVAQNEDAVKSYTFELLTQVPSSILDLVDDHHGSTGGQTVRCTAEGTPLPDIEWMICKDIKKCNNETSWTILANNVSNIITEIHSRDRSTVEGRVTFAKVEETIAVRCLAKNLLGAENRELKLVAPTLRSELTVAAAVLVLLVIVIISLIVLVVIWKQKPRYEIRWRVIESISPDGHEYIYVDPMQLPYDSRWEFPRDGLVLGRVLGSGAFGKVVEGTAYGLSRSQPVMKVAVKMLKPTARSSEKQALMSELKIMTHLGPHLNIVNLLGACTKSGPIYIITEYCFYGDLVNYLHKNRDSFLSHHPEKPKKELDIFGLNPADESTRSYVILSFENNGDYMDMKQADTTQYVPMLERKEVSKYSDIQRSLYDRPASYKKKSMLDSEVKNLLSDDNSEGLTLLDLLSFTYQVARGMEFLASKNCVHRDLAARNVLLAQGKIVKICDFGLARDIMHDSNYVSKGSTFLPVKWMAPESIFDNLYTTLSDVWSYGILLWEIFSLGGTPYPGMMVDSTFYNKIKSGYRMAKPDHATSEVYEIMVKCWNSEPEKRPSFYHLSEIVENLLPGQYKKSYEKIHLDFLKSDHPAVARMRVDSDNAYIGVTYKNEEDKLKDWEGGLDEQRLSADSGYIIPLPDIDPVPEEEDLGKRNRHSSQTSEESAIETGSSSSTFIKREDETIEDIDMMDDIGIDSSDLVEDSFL
Assay protocol: Caliper, Mobility shift assay off-chip
Experimental conditions: compound 0.2 µM
Measurement name: inhibition (%)
Please reply with the bare figure in % and do not write the unit itself.

{"Molecular string": "Cc1ccc(Nc2nccc(N(C)c3ccc4c(C)n(C)nc4c3)n2)cc1S(N)(=O)=O", "inhibition (%)": 95.6}
{"Molecular string": "COc1cc2c(Oc3ccc4[nH]c(C)cc4c3F)ncnc2cc1OCCCN1CCCC1", "inhibition (%)": 86.9}
{"Molecular string": "CNC(=O)c1cc(Oc2ccc(NC(=O)Nc3ccc(Cl)c(C(F)(F)F)c3)cc2)ccn1", "inhibition (%)": 105}

--- query ---
For this molecule ( CCN(CC)CCNC(=O)c1c(C)[nH]c(/C=C2\C(=O)Nc3ccc(F)cc32)c1C ), measured inhibition is 100

###

Item-by-item account of inhibition
Assay target: AKT1 (human) (UniProt P31749)
Sequence (P31749 whole entry, looked up): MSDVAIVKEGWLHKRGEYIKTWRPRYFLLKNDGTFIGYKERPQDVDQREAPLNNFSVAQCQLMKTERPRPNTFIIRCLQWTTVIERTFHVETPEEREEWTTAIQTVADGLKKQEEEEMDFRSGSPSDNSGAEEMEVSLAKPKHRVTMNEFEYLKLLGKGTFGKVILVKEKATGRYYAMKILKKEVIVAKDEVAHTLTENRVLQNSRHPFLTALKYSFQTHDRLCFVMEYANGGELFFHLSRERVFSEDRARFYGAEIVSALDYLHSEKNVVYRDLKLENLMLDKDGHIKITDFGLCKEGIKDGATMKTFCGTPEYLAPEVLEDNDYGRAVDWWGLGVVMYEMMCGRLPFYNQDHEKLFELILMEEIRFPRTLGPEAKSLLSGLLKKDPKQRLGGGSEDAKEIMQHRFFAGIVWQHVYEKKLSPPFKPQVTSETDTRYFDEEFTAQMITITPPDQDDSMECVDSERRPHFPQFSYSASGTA
Assay protocol: Caliper, Mobility shift assay off-chip
Experimental conditions: compound 0.02 µM
Please reply with the bare figure in % and do not write the unit itself.

{"Molecular string": "COc1cc2c(Oc3ccc4[nH]c(C)cc4c3F)ncnc2cc1OCCCN1CCCC1", "inhibition (%)": -0.8}
{"Molecular string": "CNC(=O)c1ccccc1Sc1ccc2c(/C=C/c3ccccn3)n[nH]c2c1", "inhibition (%)": -4.8}
{"Molecular string": "CNC(=O)c1cc(Oc2ccc(NC(=O)Nc3ccc(Cl)c(C(F)(F)F)c3)cc2)ccn1", "inhibition (%)": -2.8}

--- query ---
For this molecule ( Cc1ccc(Nc2nccc(N(C)c3ccc4c(C)n(C)nc4c3)n2)cc1S(N)(=O)=O ), measured inhibition is -2.3

###

Item-by-item account of inhibition
Assay target: RAF1 (human) (UniProt P04049)
Sequence (P04049 whole entry, looked up): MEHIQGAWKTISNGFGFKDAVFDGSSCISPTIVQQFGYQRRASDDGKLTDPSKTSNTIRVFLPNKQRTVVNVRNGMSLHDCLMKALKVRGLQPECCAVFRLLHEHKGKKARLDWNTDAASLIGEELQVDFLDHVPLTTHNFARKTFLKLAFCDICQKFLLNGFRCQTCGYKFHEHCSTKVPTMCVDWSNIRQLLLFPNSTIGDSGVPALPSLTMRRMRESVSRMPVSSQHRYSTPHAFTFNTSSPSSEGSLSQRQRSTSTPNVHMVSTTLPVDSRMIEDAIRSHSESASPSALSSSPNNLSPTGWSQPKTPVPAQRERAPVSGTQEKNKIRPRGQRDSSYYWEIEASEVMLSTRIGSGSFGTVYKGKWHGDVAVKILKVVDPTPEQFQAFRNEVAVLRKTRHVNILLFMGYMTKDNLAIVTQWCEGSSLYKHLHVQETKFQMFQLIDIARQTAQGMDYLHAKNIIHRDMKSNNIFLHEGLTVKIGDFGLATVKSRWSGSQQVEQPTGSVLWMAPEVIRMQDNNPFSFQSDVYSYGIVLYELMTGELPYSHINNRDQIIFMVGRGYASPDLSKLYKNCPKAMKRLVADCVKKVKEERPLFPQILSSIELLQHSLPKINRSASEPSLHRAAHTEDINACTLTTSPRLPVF
Assay protocol: ELISA
Experimental conditions: compound 0.02 µM
Please reply with the bare figure in % and do not write the unit itself.

Solved cases (3 shown):
{"Molecular string": "Cc1ccc(Nc2nccc(N(C)c3ccc4c(C)n(C)nc4c3)n2)cc1S(N)(=O)=O", "Units text": "%", "inhibition": 22.1}
{"Molecular string": "CNC(=O)c1cc(Oc2ccc(NC(=O)Nc3ccc(Cl)c(C(F)(F)F)c3)cc2)ccn1", "Units text": "%", "inhibition": 41.7}
{"Molecular string": "COc1cc2c(Oc3ccc4[nH]c(C)cc4c3F)ncnc2cc1OCCCN1CCCC1", "Units text": "%", "inhibition": 3.1}

For this molecule ( CNC(=O)c1ccccc1Sc1ccc2c(/C=C/c3ccccn3)n[nH]c2c1 ), measured inhibition is -3
